Target: recombinant mTOR (FLAG-tagged, residues 1362-2549) (Homo sapiens, UniProt P42345)
Sequence (P42345 1362-2549): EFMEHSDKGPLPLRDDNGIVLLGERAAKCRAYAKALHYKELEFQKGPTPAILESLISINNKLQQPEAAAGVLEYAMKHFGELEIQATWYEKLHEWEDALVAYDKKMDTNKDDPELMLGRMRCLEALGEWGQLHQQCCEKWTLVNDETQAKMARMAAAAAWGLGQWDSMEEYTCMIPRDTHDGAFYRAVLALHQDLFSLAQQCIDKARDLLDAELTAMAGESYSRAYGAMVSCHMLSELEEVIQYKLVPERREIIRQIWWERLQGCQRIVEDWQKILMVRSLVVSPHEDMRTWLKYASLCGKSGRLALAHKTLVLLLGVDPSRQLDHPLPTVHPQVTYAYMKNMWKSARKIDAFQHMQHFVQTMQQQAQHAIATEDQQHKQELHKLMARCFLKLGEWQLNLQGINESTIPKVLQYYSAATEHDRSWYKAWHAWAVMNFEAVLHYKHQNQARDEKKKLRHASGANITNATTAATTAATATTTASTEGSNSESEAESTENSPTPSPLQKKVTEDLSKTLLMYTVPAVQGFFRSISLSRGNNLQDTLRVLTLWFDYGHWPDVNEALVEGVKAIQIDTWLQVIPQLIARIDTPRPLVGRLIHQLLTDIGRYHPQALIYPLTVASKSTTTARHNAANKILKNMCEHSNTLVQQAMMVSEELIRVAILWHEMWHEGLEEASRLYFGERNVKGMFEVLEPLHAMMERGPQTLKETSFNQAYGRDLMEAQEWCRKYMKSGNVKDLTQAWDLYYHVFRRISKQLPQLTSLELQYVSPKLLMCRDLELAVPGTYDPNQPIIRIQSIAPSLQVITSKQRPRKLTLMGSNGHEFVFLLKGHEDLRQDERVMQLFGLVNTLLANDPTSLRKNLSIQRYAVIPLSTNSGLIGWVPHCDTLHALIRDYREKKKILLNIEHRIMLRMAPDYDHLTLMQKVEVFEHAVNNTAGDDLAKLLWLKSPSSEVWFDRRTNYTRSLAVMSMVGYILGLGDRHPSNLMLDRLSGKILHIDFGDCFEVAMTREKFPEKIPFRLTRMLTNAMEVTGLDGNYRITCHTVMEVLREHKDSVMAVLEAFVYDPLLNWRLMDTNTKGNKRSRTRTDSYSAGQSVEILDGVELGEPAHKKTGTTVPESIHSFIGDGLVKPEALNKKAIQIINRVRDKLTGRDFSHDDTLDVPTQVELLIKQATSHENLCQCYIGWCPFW
Experiment: In vitro mTOR kinase assay (Test (a), AlphaScreen)
Details: ATP 20 μM, read-out: Test (a): IC50 versus mTOR kinase
Consider the cut-off 200 nM. If the recorded IC50 is strictly smaller, the label is met; if not, the label is not met.

COMPOUND: CNC(=O)Nc1ccc(-c2nc(CS(=O)(=O)c3nccn3C)cc(N3CCOC[C@@H]3C)n2)cc1 [Example 33]
ASSIGNED LABEL: not met
//
COMPOUND: CNC(=O)Nc1ccc(-c2nc(N3CCOC[C@@H]3C)cc(C(C)(C)S(C)(=O)=O)n2)cc1 [Example 21f]
ASSIGNED LABEL: met
//
COMPOUND: CN1CCC(NC(=O)Nc2ccc(-c3nc(N4CCOCC4)cc(C(C)(C)S(C)(=O)=O)n3)cc2)CC1 [Example 21d]
ASSIGNED LABEL: not met
//
COMPOUND: CNC(=O)Nc1ccc(-c2nc(CS(C)(=O)=O)cc(N3CCOC[C@@H]3C)n2)cc1C [Example 8j]
ASSIGNED LABEL: met
//
COMPOUND: C[C@H]1COCCN1c1cc(CS(C)(=O)=O)nc(-c2ccc(NC(=O)N(C)C3CC3)cc2)n1 [Example 35m]
ASSIGNED LABEL: not met
//
COMPOUND: C[C@H]1COCCN1c1cc(CS(C)(=O)=O)nc(-c2ccc(NC(=O)Nc3ccccc3)c(F)c2)n1 [Example 1g]
ASSIGNED LABEL: not met
//
COMPOUND: CCNC(=O)Nc1ccc(-c2nc(CS(=O)(=O)C(C)C)cc(N3CCOC[C@@H]3C)n2)cc1 [Example 20q]
ASSIGNED LABEL: met

* * *

Target: recombinant mTOR (FLAG-tagged, residues 1362-2549) (Homo sapiens, UniProt P42345)
Test: In vitro mTOR kinase assay (Test (a), AlphaScreen)
Details: ATP 20 μM, read-out: Test (a): IC50 versus mTOR kinase
log10(IC50): recorded values
PROPERTY: log10(IC50) (log10 of the value in nM)

COMPOUND: C[C@H]1COCCN1c1cc(CS(C)(=O)=O)nc(-c2ccc(NC(=O)NCCc3ccccn3)cc2)n1
SYSTEM TESTED: recombinant mTOR (FLAG-tagged, residues 1362-2549) (Homo sapiens, UniProt P42345)
log10(IC50): 2.53

COMPOUND: COCCCNC(=O)Nc1ccc(-c2nc(CS(C)(=O)=O)cc(N3CCOC[C@@H]3C)n2)cc1 [Example 35b]
SYSTEM TESTED: recombinant mTOR (FLAG-tagged, residues 1362-2549) (Homo sapiens, UniProt P42345)
log10(IC50): 2.62

COMPOUND: C[C@H]1COCCN1c1cc(CS(C)(=O)=O)nc(-c2ccc(NC(=O)Nc3ccc(F)cc3)nc2)n1
SYSTEM TESTED: recombinant mTOR (FLAG-tagged, residues 1362-2549) (Homo sapiens, UniProt P42345)
log10(IC50): 1.63

COMPOUND: C[C@H]1COCCN1c1cc(C(=O)N2CCN(C)CC2)nc(-c2ccc(NC(=O)NC3CC3)cc2)n1 [Example 36b]
SYSTEM TESTED: recombinant mTOR (FLAG-tagged, residues 1362-2549) (Homo sapiens, UniProt P42345)
log10(IC50): 2.26

COMPOUND: C[C@H]1COCCN1c1cc(CS(=O)(=O)CC(N)=O)nc(-c2ccc(NC(=O)N(C)C)cc2)n1
SYSTEM TESTED: recombinant mTOR (FLAG-tagged, residues 1362-2549) (Homo sapiens, UniProt P42345)
log10(IC50): 3.04

COMPOUND: Cc1cc(CNC(=O)Nc2ccc(-c3nc(CS(C)(=O)=O)cc(N4CCOC[C@@H]4C)n3)cc2)no1 [Example 24h]
SYSTEM TESTED: recombinant mTOR (FLAG-tagged, residues 1362-2549) (Homo sapiens, UniProt P42345)
log10(IC50): 3.64

COMPOUND: C[C@H]1COCCN1c1cc(C(C)(C)S(C)(=O)=O)nc(-c2ccc(NC(=O)Nc3ncccn3)cc2)n1 [Example 24u]
SYSTEM TESTED: recombinant mTOR (FLAG-tagged, residues 1362-2549) (Homo sapiens, UniProt P42345)
log10(IC50): 2.08

COMPOUND: COCCNC(=O)Nc1ccc(-c2nc(CS(C)(=O)=O)cc(N3CCOC[C@@H]3C)n2)cc1OC
SYSTEM TESTED: recombinant mTOR (FLAG-tagged, residues 1362-2549) (Homo sapiens, UniProt P42345)
log10(IC50): 2.78

COMPOUND: CNC(=O)Nc1ccc(-c2nc(CS(=O)(=O)c3ccc(F)cc3)cc(N3CCOC[C@@H]3C)n2)cc1 [Example 19b]
SYSTEM TESTED: recombinant mTOR (FLAG-tagged, residues 1362-2549) (Homo sapiens, UniProt P42345)
log10(IC50): 1.52

COMPOUND: C[C@H]1COCCN1c1cc(CS(C)(=O)=O)nc(-c2ccc(NC(=O)NCc3ccccn3)cc2)n1 [Example 24d]
SYSTEM TESTED: recombinant mTOR (FLAG-tagged, residues 1362-2549) (Homo sapiens, UniProt P42345)
log10(IC50): 3.64

COMPOUND: C[C@H]1COCCN1C(=O)c1cc(N2CCOC[C@@H]2C)nc(-c2ccc(NC(=O)NC3CC3)cc2)n1
SYSTEM TESTED: recombinant mTOR (FLAG-tagged, residues 1362-2549) (Homo sapiens, UniProt P42345)
log10(IC50): 1.79

COMPOUND: CC(C)(C)CNC(=O)Nc1ccc(-c2nc(CS(C)(=O)=O)cc(N3CCOCC3)n2)cc1 [Example 45p]
SYSTEM TESTED: recombinant mTOR (FLAG-tagged, residues 1362-2549) (Homo sapiens, UniProt P42345)
log10(IC50): 2.96

COMPOUND: CS(=O)(=O)Cc1cc(N2CCOCC2)nc(-c2ccc(NC(=O)Nc3ccccc3OC(F)F)cc2)n1
SYSTEM TESTED: recombinant mTOR (FLAG-tagged, residues 1362-2549) (Homo sapiens, UniProt P42345)
log10(IC50): 3.41

COMPOUND: C[C@H]1COCCN1c1cc(CS(=O)(=O)c2ccccc2)nc(-c2ccc(NC(=O)N(C)C)cc2)n1
SYSTEM TESTED: recombinant mTOR (FLAG-tagged, residues 1362-2549) (Homo sapiens, UniProt P42345)
log10(IC50): 3.00

COMPOUND: CC(=O)NCCS(=O)(=O)Cc1cc(N2CCOC[C@@H]2C)nc(-c2ccc(NC(=O)NCc3cnn(C)c3)cc2)n1
SYSTEM TESTED: recombinant mTOR (FLAG-tagged, residues 1362-2549) (Homo sapiens, UniProt P42345)
log10(IC50): 2.81
